The measured values listed here are drawn from ChEMBL document CHEMBL3507680.

Kindly supply the reported cytotoxicity at 70.5 h values for the records listed here.
Experiment: Human HepG2 cell viability assay in 384 well format
Format: toxicity, cell-based
Parameters: dose 125 nL, time 70.5 hour; concentration not given beside the values
Settings: HepG2 cells, read-out: Inhibition
Field format: number, assumed %, no unit text.

Req: Provide one value: measured cytotoxicity at 70.5 h of Cc1nc2n(n1)CC(NCCC(=O)Nc1cc(C)on1)CC2 (centres undefined)
Resp: -6.62

Req: Specify measured cytotoxicity at 70.5 h for O=C(CC(F)(F)F)N1CCCC(c2nccn2Cc2ccncc2)C1 (centres undefined) .
Resp: -6.22

Req: // fetch cytotoxicity at 70.5 h given entry `O=C(Nc1cnccn1)[C@H]1COC[C@H]2CN(c3ncc(F)cn3)C[C@H]21`
Resp: -5.25

Req: Note down cytotoxicity at 70.5 h recorded for Fc1cnc(N2CCC3(CC2)CC(OCc2cccnc2)CO3)nc1 (centres undefined)
Resp: -0.216

Req: Name the recorded cytotoxicity at 70.5 h of the item `CNc1oc(-c2cc(S(=O)(=O)N3CCCCCC3)c(C)o2)nc1C#N` in your answer.
Resp: -20.9

Req: // Input: Cc1cc(CN(Cc2ccccc2)CC(O)c2cccs2)on1 (centres undefined) . Output its cytotoxicity at 70.5 h only.
Resp: 8.6

Req: Please give the documented cytotoxicity at 70.5 h of Cc1nccn1C1CCCN(C(=O)c2ccc3c(c2)NC(=O)CO3)C1 (centres undefined)
Resp: -5.24

Req: Query cytotoxicity at 70.5 h for O=C(NCCc1ccccc1)C1CCN(C(=O)Cn2cncn2)C1 (centres undefined)
Resp: -10.2

Req: Note down cytotoxicity at 70.5 h recorded for `CNC(=O)CN1CCC2(CC1)C[C@@H](O)[C@H](c1ccccc1)NC2=O`
Resp: -4.55

Req: Consider the molecule Cc1cc(C[S+]([O-])Cc2ccccc2F)no1 (centres undefined) and give its recorded cytotoxicity at 70.5 h.
Resp: 16.6

Req: Give a short answer stating reported cytotoxicity at 70.5 h for Cc1ccc(CN2CCOCC2c2[nH]ncc2C)cn1 (centres undefined) .
Resp: -7.81

Req: Note down cytotoxicity at 70.5 h recorded for `O=C(CCNC(=O)c1cnccn1)Nc1ncc[nH]1`
Resp: -31.8

Req: Answer with the recorded cytotoxicity at 70.5 h for the molecule listed here: `COc1ccc(C2=CCN(C(=O)C3CCC3)CC2)cc1`
Resp: -1.58

Req: Return the recorded cytotoxicity at 70.5 h value; entry: `CCOc1cccc(NC(=O)c2cc(C)on2)n1`
Resp: -5.47

Req: Provide one value: measured cytotoxicity at 70.5 h of `CC(C)COc1cncc(NCCc2nnc3ccccn23)n1`
Resp: -4.15

Req: Return cytotoxicity at 70.5 h for the following molecule: Cc1ccc(C)c(C(NC(=O)C2CC2)c2cccnc2)c1 (centres undefined)
Resp: -1.23

Req: Indicate the recorded cytotoxicity at 70.5 h value for this molecule: CC1Cc2ccccc2N1C(=O)Cn1nc(-c2cccs2)ccc1=O (centres undefined)
Resp: -8.13

Req: Return value of cytotoxicity at 70.5 h for input Cc1cccc(N2CC3(CCN(S(=O)(=O)c4cccs4)C3)CC2=O)c1 (centres undefined) , no commentary.
Resp: -2.22

Req: Output cytotoxicity at 70.5 h of `Cn1ccnc1CN1CCC2(CC1)CN(c1ccccn1)CCO2`
Resp: 8.31

Req: Please indicate cytotoxicity at 70.5 h recorded for CC(C)CC(=O)N1CCCC1c1cc(CO)[nH]n1 (centres undefined)
Resp: -4.42

Req: Kindly indicate its recorded cytotoxicity at 70.5 h. Item: `COc1ccc([C@@H]2CN(C(=O)CCn3cccn3)C[C@H]2NC(C)=O)cc1`
Resp: 6.76

Req: Please supply the value of reported cytotoxicity at 70.5 h for the item `Cn1cc(C(=O)NCc2cncc3c2CCN(CC2CC2)C3)cn1`
Resp: 17.9

Req: Complete the entry with cytotoxicity at 70.5 h for OCCN1CCN(CC(O)c2ccc(OC(F)(F)F)cc2)CC1 (centres undefined)
Resp: -2.1

Req: Item Cc1nccn1C1CCCN(C(=O)COCC(F)(F)F)C1 (centres undefined) : provide cytotoxicity at 70.5 h
Resp: -7.9
